Overview of recorded T/C for various molecules
# System: P388 leukemia ip, CD2F1 mice, survival T/C
# experimental protocol: NCI In Vivo Anticancer Drug Screen. Data for tumor model P388 Leukemia (intraperitoneal) in CD2F1 (CDF1) mice
# assay context: endpoint: median survival time; dose: 400.0 mg/kg/injection; schedule: Q04DX002 (ip); vehicle: saline; higher = longer survival
Inconclusive results and toxic doses are left out.

| molecule | value measured |
| --- | --- |
| CCn1cc(C(=O)O)c(=O)c2ccc(C)[n+](C)c21 | 98 % of control |

# query: T/C of entry `N=C(N)SCC(=O)n1ccc(=O)n(C(=O)CSC(=N)N)c1=O`
96 % of control

Sample `CCc1cc(/C=C2/OC(=O)c3ccccc32)cc(CC)c1O` — what was its T/C?
100 % of control

====

# System: P388 leukemia ip, CD2F1 mice, survival T/C
# experimental protocol: NCI In Vivo Anticancer Drug Screen. Data for tumor model P388 Leukemia (intraperitoneal) in CD2F1 (CDF1) mice
# assay context: endpoint: median survival time; dose: 25.0 mg/kg/injection; schedule: Q01DX005 (ip); vehicle: Klucel (hydroxypropylcellulose) (HPC); higher = longer survival
Toxic doses and inconclusive results are not listed.
Measured T/C, listed per entry for reference.

Look over these answered cases.
| molecule | value measured |
| --- | --- |
| CN1CCc2c1c1c(c3c4ccccc4n(C)c23)N(C)CC1 | 107 % of control |
| C1=NCc2ccsc2-n2cccc21 | 100 % of control |
| CC1=CC(C/C(C)=C/COc2ccc3ccc(=O)oc3c2)OC1=O (stereo unspecified) | 90 % of control |
| O=C1CSC(c2ccccc2F)N1c1ncccn1 (stereo unspecified) | 108 % of control |
| COc1ccc(/C=C/C(=O)OC2CC34CCNC35CC(OC5(OC)C2OC)c2ccc(OC)c(O)c24)cc1O (stereo unspecified) | 100 % of control |

Look up T/C for this molecule: `C[C-]=NCCCl.C[C-]=O.[C-]#[O+].[C-]#[O+].[C-]#[O+].[C-]#[O+].[Re]`
89 % of control

Endpoint output: T/C of CC(C)CC1[NH][Sn]2([NH]C(CC(C)C)C(=O)[O]2)[O]C1=O (stereo unspecified) . Value?
104 % of control

What value of T/C has been reported for the following molecule? `c1c[se]c(-c2nc3ccccc3[nH]2)c1`
107 % of control

Item under review: `O=C1Nc2ccccc2/C1=N/n1c(-c2ccccc2)nc2ccccc2c1=O` . Reported T/C?
97 % of control

Form field: reported T/C of `N=c1oc(-c2ccccc2)cc2ccccc12`
104 % of control

Please give the measured T/C for this molecule: `CN1CCC2(CC1)OCCO2`
100 % of control

====

Property: T/C; scope: individual compounds
# Tested on: P388 leukemia ip, CD2F1 mice, survival T/C
# experimental protocol: NCI In Vivo Anticancer Drug Screen. Data for tumor model P388 Leukemia (intraperitoneal) in CD2F1 (CDF1) mice
# assay context: endpoint: median survival time; dose: 200.0 mg/kg/injection; schedule: Q01DX005 (ip); vehicle: saline with Tween-80; higher = longer survival
Toxic doses and inconclusive results are not listed.

Below, each entry is followed by its recorded T/C result.
| compound | T/C |
| --- | --- |
| CCOC(=O)COc1cc2c(cc1C(C)c1cc(OC)c(OC)c(OC)c1)OCO2 (centres undefined) | 99 % of control |
| C=COC(=O)C(Cc1ccccc1)NC(=O)OCc1ccccc1 (centres undefined) | 100 % of control |
| Cc1c(Cl)cccc1Nc1ncccc1C(=O)OCC(O)CO (centres undefined) | 95 % of control |

Kindly consider the entry below.
Any idea what its T/C is? The compound is Nc1nc2c(c(=O)[nH]1)N(C(=O)CCCCCCC(=O)N1c3c(nc(N)[nH]c3=O)NCC1CNc1ccc(C(=O)NC(CCC(=O)O)C(=O)O)cc1)C(CNc1ccc(C(=O)NC(CCC(=O)O)C(=O)O)cc1)CN2 (centres undefined) (tested in a mixture with another compound)
100 % of control

Taken from PubChem BioAssay AID330.
